- experimentalSystem: T1, IIB-Fc:IIB-Fc homodimer (human ActRIIB ECD fused to human IgG1 Fc) (human, UniProt Q13705-1 19-134)
- T1 construct: activin receptor type IIB (ActRIIB) extracellular domain, human, aa 19-134 of NP_001097.2; Chains linked by disulfide bonds between the Fc domains; a form with murine IgG2a Fc was used only in mice; also called ActRIIB-Fc homodimer; ActRIIB-Fc; not shown: Fc (human IgG1), C-terminal, kept
- T1 sequence (Q13705 19-134): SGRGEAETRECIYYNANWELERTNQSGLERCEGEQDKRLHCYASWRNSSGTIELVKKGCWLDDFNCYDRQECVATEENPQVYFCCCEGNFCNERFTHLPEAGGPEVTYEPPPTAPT
- assayProtocol: SPR; Biacore 8K, 37 °C; Fc-fusion receptor dimers captured by anti-human Fc antibody on a CM5 chip (100-150 RU); ligands injected in two-fold dilution series (300 s association, 600 s dissociation); HBS-EP+ supplemented with 350 mM NaCl and 0.5 mg/mL BSA; 1:1 Langmuir model with a term for mass transport
- conditionNotes: both partners purified
endpoint: kon (M⁻¹ s⁻¹)

# count of solved cases: 3
activin A (ligand, human, UniProt P08476 311-426, looked up, source: generated in house) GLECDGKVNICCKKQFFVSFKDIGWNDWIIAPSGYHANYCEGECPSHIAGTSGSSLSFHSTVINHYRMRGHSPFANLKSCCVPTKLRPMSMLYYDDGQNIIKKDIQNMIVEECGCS    7.8e+06
activin B (ligand, human, UniProt P09529 293-407, looked up, source: generated in house) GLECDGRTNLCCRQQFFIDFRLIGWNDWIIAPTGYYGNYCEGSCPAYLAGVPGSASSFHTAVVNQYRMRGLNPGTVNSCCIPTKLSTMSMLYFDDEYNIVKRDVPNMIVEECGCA    5.7e+06
BMP9 (ligand, human, UniProt Q9UK05 320-429, looked up, source: generated in house) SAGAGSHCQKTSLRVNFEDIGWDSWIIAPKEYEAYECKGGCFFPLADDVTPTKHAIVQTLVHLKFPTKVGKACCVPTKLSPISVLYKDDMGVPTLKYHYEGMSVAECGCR    1.24e+07

a. GDF3 (ligand, human, UniProt Q9NR23 251-364, looked up, source: bought: R&D Systems) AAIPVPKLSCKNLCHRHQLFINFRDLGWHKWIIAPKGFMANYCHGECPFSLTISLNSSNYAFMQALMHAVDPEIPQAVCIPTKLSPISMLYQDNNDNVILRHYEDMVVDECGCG
b. GDF11 (ligand, human, UniProt O95390 299-407, looked up, source: generated in house) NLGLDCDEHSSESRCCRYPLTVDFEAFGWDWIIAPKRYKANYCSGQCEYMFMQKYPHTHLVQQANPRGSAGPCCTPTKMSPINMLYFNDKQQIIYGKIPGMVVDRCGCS
Looking at a and b , which one comes out lower in kon terms? Pick one and reply with its label.
a
(a: 2.9e+06 M⁻¹ s⁻¹, b: 1.94e+07 M⁻¹ s⁻¹)
